This collection of values is drawn from patent US7348336B2.

Target: IκBα-kinase complex (Homo sapiens, UniProt O14920+O15111)
Construct: endogenous in cells; host or cells: HeLa S3 cell extract, S100 fraction; ammonium sulfate precipitation and Superose-6 size exclusion
Sequence (O14920 whole entry): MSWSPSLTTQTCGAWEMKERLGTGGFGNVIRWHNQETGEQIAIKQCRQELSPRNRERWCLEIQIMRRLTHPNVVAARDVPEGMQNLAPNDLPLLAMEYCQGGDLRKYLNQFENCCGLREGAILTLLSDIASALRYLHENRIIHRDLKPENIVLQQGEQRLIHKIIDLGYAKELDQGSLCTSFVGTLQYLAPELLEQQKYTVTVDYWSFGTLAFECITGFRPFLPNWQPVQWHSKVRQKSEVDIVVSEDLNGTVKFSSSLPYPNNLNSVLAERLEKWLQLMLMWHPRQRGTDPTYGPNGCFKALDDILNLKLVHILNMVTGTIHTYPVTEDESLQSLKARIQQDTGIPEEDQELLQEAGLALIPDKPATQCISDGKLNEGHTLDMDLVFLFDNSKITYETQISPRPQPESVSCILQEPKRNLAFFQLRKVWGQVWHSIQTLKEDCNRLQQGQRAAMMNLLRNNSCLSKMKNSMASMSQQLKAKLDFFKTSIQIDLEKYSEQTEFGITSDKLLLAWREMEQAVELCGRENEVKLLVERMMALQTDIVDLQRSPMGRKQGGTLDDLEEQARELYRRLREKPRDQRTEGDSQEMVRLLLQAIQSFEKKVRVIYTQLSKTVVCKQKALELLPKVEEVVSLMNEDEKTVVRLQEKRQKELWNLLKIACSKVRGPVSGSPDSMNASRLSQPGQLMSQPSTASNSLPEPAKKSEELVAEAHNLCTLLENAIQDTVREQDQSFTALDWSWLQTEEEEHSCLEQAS
Sequence (O15111 whole entry): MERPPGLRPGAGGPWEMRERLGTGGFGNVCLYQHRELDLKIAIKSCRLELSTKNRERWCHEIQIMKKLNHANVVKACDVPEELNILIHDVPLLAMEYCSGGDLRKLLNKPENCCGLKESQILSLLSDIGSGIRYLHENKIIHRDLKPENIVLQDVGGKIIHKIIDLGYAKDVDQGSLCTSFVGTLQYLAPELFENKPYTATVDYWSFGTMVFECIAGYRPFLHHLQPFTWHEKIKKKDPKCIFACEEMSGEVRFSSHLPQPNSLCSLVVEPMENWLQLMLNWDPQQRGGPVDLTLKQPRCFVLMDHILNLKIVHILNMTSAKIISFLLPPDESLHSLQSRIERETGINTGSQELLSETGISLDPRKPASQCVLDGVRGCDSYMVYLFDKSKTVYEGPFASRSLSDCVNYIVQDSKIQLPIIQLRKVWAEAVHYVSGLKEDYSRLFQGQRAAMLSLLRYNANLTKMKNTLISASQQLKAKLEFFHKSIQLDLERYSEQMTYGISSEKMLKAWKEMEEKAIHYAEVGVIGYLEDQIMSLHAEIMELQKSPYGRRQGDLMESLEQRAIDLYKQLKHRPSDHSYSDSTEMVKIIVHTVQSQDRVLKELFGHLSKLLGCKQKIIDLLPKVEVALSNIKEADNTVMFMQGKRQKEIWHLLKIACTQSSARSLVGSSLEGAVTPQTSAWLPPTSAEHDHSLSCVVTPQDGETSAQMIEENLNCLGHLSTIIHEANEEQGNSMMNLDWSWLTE
Sequence (Q9Y6K9 whole entry partner): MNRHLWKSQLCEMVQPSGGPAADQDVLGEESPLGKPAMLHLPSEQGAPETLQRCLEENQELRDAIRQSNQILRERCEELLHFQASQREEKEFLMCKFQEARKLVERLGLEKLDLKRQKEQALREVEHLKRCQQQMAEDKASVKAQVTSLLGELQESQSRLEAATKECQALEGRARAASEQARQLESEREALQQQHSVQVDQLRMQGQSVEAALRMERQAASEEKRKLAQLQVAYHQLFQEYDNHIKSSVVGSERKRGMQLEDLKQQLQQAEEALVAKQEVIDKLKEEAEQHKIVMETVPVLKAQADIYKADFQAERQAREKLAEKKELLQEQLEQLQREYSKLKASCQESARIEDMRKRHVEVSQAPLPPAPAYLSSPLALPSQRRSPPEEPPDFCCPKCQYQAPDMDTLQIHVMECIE
Assay: IkB-Kinase ELISA
Type: biochemical
Settings: activated IκBα kinase complex from HeLa S3 cell extracts; ELISA; read-out: IkB-kinase IC50
Where a name gives a salt, the structure may show the parent alone.
Entries and their log10(IC50)
Hey, these are logged values: log10 of IC50, nM being the unit before logging.

{"columns": ["molecule", "log10(IC50)"],
 "data": [
  ["O=C(Nc1cc(Cl)cc2c1[nH]c1cnccc12)c1ccccc1F [Example 62]", 2.58],
  ["Cn1c2ccc(Br)cc2c2ccncc21", 2.85],
  ["CS(=O)(=O)Nc1cc(Cl)cc2c1[nH]c1cnccc12 [Example 45, trifluoroacetate]", 3.92],
  ["COc1c(Cl)cc2c([nH]c3cnccc32)c1NC(=O)c1ccno1", 2.78]
]}

# O=C(Nc1cc(Cl)cc2c1[nH]c1cnccc12)c1cccs1 with IκBα-kinase complex (Homo sapiens, UniProt O14920+O15111): log10(IC50) is 2.95

# COc1c(Cl)cc2c([nH]c3cnccc32)c1N with IκBα-kinase complex (Homo sapiens, UniProt O14920+O15111): log10(IC50) is 2.70

---

Target: IκBα-kinase complex (Homo sapiens, UniProt O14920+O15111)
Construct: endogenous in cells; host or cells: HeLa S3 cell extract, S100 fraction; ammonium sulfate precipitation and Superose-6 size exclusion
Assay: IkB-Kinase ELISA
Format: biochemical
Conditions: activated IκBα kinase complex from HeLa S3 cell extracts; ELISA; read-out: IkB-kinase IC50
pIC50: −log10 of the molar value. Counter-ions that a name gives are not always drawn.
pIC50 below 6 gives NOT MET; pIC50 at or above it gives MET.

Example results:
{"columns": ["molecule", "experimental.target", "label"],
 "data": [
  ["Cc1oc(C(F)(F)F)cc1C(=O)Nc1cc(Cl)cc2c1[nH]c1cnccc12 [Example 77]", "IκBα-kinase complex (Homo sapiens, UniProt O14920+O15111)", "NOT MET"],
  ["COc1c([N+](=O)[O-])cc2c([nH]c3cnccc32)c1Cl [Example 94]", "IκBα-kinase complex (Homo sapiens, UniProt O14920+O15111)", "MET"],
  ["CC(=O)N(C)c1cc(Cl)cc2c1[nH]c1cnccc12 [Example 48, trifluoroacetate]", "IκBα-kinase complex (Homo sapiens, UniProt O14920+O15111)", "NOT MET"]
]}

Request: # bool: pIC50 of O=[N+]([O-])c1cc(Cl)cc2c1[nH]c1cnccc12 [Example 14] >= 6
Result: NOT MET

Request: # bool: pIC50 of O=C(Nc1cc(Cl)cc2c1[nH]c1cnccc12)c1ccco1 [Example 75] >= 6
Result: MET

Request: # bool: pIC50 of O=C1COc2c(Cl)cc3c([nH]c4cnccc43)c2N1 [Example 91] >= 6
Result: NOT MET

Request: # bool: pIC50 of Cc1cc(C(=O)Nc2cc(Cl)cc3c2[nH]c2cnccc23)no1 [Example 80] >= 6
Result: MET

---

Molecular target: IκBα-kinase complex (Homo sapiens, UniProt O14920+O15111)
Construct: endogenous in cells; host or cells: HeLa S3 cell extract, S100 fraction; ammonium sulfate precipitation and Superose-6 size exclusion
Experiment: IkB-Kinase ELISA
Format: biochemical
Details: activated IκBα kinase complex from HeLa S3 cell extracts; ELISA; read-out: IkB-kinase IC50
Where a name gives a salt, the structure may show the parent alone.
Entries and their IC50

Here's what some known entries look like.
{"columns": ["molecule", "IC50"],
 "data": [
  ["O=C(Nc1c(O)c(Cl)cc2c1[nH]c1cnccc12)c1cccnc1", "4600 nM"],
  ["Clc1cc(Cl)c2[nH]c3cnccc3c2c1", "200 nM"],
  ["OCCn1c2ccc(Cl)cc2c2ccncc21", "3000 nM"],
  ["O=C(Nc1cc(Cl)cc2c1[nH]c1cnccc12)c1ccccn1", "750 nM"],
  ["COc1cc2[nH]c3c(C)nccc3c2cc1Br", "4600 nM"]
]}

Lab book: IC50 of COc1c(Cl)cc2c([nH]c3cnccc32)c1NC(=O)c1ccc(Cl)nc1 noted as 120 nM

Lab book: IC50 of O=C(Nc1cc(Cl)cc2c1[nH]c1cnccc12)c1ccc(F)c(F)c1 noted as 150 nM

Lab book: IC50 of CNc1cc(Cl)cc2c1[nH]c1cnccc12 [Example 43, trifluoroacetate] noted as 1000 nM

Lab book: IC50 of O=C(Oc1c(Cl)cc2c([nH]c3cnccc32)c1Cl)N1CCOCC1 noted as 3200 nM

Lab book: IC50 of O=C(c1cccnc1)N1CCn2c3cnccc3c3cc(Cl)cc1c32 noted as 3000 nM

Lab book: IC50 of O=C(Nc1cc(Cl)cc2c1[nH]c1cnccc12)c1ccc(C(F)(F)F)cc1 noted as 3800 nM

Lab book: IC50 of CCOc1c(Cl)cc2c([nH]c3cnccc32)c1Cl noted as 100 nM

Lab book: IC50 of CC(=O)n1c2ccc(Br)cc2c2ccncc21 noted as 400 nM

Lab book: IC50 of COc1ccc(C(=O)Nc2cc(Cl)cc3c2[nH]c2cnccc23)cc1OC noted as 3000 nM

Lab book: IC50 of Fc1cc2[nH]c3cnccc3c2cc1Cl [Example 40, trifluoroacetate] noted as 2000 nM

---

Entries and their pIC50
Target: IκBα-kinase complex (Homo sapiens, UniProt O14920+O15111)
Construct: endogenous in cells; host or cells: HeLa S3 cell extract, S100 fraction; ammonium sulfate precipitation and Superose-6 size exclusion
Assay: IkB-Kinase ELISA
Type: biochemical
Details: activated IκBα kinase complex from HeLa S3 cell extracts; ELISA; read-out: IkB-kinase IC50
Just so you know, pIC50 here is -log10 of the concentration in molar units; reply with that number alone.

Here's what some known entries look like.
{"columns": ["smiles.notation", "measurement.label", "reported.value"],
 "data": [
  ["O=C(Cc1cccs1)Nc1cc(Cl)cc2c1[nH]c1cnccc12", "pIC50", 6.15],
  ["COc1cc2[nH]c3cnccc3c2cc1Cl", "pIC50", 6.15]
]}

Kindly consider the entry below.
# COc1cc2[nH]c3cnccc3c2cc1[N+](=O)[O-] with IκBα-kinase complex (Homo sapiens, UniProt O14920+O15111): pIC50 is 5.89

---

Entries and their IC50
Target: IκBα-kinase complex (Homo sapiens, UniProt O14920+O15111)
Construct: endogenous in cells; host or cells: HeLa S3 cell extract, S100 fraction; ammonium sulfate precipitation and Superose-6 size exclusion
Experiment: IkB-Kinase ELISA
Type: biochemical
Conditions: activated IκBα kinase complex from HeLa S3 cell extracts; ELISA; read-out: IkB-kinase IC50

Here's what some known entries look like.
{"columns": ["compound", "experimental.target", "IC50"],
 "data": [
  ["Cc1nccc2c1[nH]c1cc(OCC(=O)OC(C)(C)C)ccc12", "IκBα-kinase complex (Homo sapiens, UniProt O14920+O15111)", "31000 nM"],
  ["O=C1CC[C@H](C(=O)Nc2cc(Cl)cc3c2[nH]c2cnccc23)O1", "IκBα-kinase complex (Homo sapiens, UniProt O14920+O15111)", "540 nM"]
]}

Lab book: IC50 of O=C(Nc1cc(Cl)cc2c1[nH]c1cnccc12)c1cccnc1O noted as 1000 nM

Lab book: IC50 of O=C(COc1ccccc1)Nc1cc(Cl)cc2c1[nH]c1cnccc12 noted as 1500 nM

Lab book: IC50 of CC(C)Oc1c(Cl)cc2c([nH]c3cnccc32)c1Cl noted as 100 nM

---

Entries and their pIC50
Biological target: IκBα-kinase complex (Homo sapiens, UniProt O14920+O15111)
Construct: endogenous in cells; host or cells: HeLa S3 cell extract, S100 fraction; ammonium sulfate precipitation and Superose-6 size exclusion
Test: IkB-Kinase ELISA;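 note: substrate phosphopeptide captured on Protein-A plates, detected with Streptavidin-HRP and TMB absorbance at 450 nm, activity read from a synthetic phosphopeptide standard curve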
Type: biochemical
Settings: activated IκBα kinase complex from HeLa S3 cell extracts; ELISA; read-out: IkB-kinase IC50
Structures can show the parent of a compound that is named as a salt.
Just so you know, pIC50 here is -log10 of the concentration in molar units; reply with that number alone.

Here's what some known entries look like.
{"columns": ["molecule", "measurement.label", "reported.value"],
 "data": [
  ["CC(C)(C)c1cc(C(=O)Nc2cc(Cl)cc3c2[nH]c2cnccc23)n(Cc2ccccc2)n1", "pIC50", 6.40],
  ["CN(C)CC(=O)Nc1cc(Cl)cc2c1[nH]c1cnccc12", "pIC50", 6.05]
]}

Kindly consider the entry below.
Lab book: pIC50 of O=C(Nc1cc(Cl)cc2c1[nH]c1cnccc12)c1ccc(F)cc1 [Example 49, trifluoroacetate] noted as 6.66
